Cited source for all entries: ChEMBL document CHEMBL5252602

Tested on: SH-SY5Y
Assay: Neuroprotective activity against human SH-SY5Y cells assessed as effect on NMDA mediated cell damage at 5 uM by MTT assay relative to control
Assay type: functional
Lab note: anything with Activity at or over 20% counts as Met; the rest go in Not met.

Query block: Could you verify whether the entry COc1ccc(CCNC(=O)[C@@H]2CCC3=Nc4ccc(Cl)cc4CN32)cc1 shows Activity of no less than 20%?
Result block: Met

Query block: Could you verify whether the entry O=C(NCCc1ccc(F)cc1)[C@@H]1CCC2=Nc3ccc(Br)cc3CN21 shows Activity of no less than 20%?
Result block: Not met

Query block: Could you verify whether the entry O=C(NCCc1ccc(O)cc1)[C@@H]1CCC2=Nc3ccc(Cl)cc3CN21 shows Activity of no less than 20%?
Result block: Met

Query block: Could you verify whether the entry CC(C(O)c1ccc(O)cc1)N1CCC(Cc2ccccc2)CC1 (stereo not drawn) [IFENPRODIL] shows Activity of no less than 20%?
Result block: Met

Query block: Could you verify whether the entry O=C(NCCc1cccc(O)c1)[C@@H]1CCC2=Nc3ccc(Cl)cc3CN21 shows Activity of no less than 20%?
Result block: Met

Query block: Could you verify whether the entry O=C(NCCc1cccc(O)c1)[C@@H]1CCC2=Nc3ccccc3CN21 shows Activity of no less than 20%?
Result block: Met

Query block: Could you verify whether the entry O=C(NCCc1ccccc1)[C@@H]1CCC2=Nc3ccc(Cl)cc3CN21 shows Activity of no less than 20%?
Result block: Not met

Query block: Could you verify whether the entry COc1ccc(C(=O)NNC(=O)[C@@H]2CCC3=Nc4ccccc4CN32)cc1 shows Activity of no less than 20%?
Result block: Met

Query block: Could you verify whether the entry O=C(NCCc1ccccc1)[C@@H]1CCC2=Nc3ccc(Br)cc3CN21 shows Activity of no less than 20%?
Result block: Not met

Query block: Could you verify whether the entry COc1ccc(CCNC(=O)[C@@H]2CCC3=Nc4ccc(Br)cc4CN32)cc1 shows Activity of no less than 20%?
Result block: Not met

Query block: Could you verify whether the entry O=C(NCCc1ccc(F)cc1)[C@@H]1CCC2=Nc3ccc(Cl)cc3CN21 shows Activity of no less than 20%?
Result block: Met

Query block: Could you verify whether the entry O=C(NCCc1cccc(O)c1)[C@@H]1CCC2=Nc3ccc(Br)cc3CN21 shows Activity of no less than 20%?
Result block: Met

Query block: Could you verify whether the entry O=C(NNC(=O)[C@@H]1CCC2=Nc3ccc(Br)cc3CN21)c1ccccc1 shows Activity of no less than 20%?
Result block: Not met

Query block: Could you verify whether the entry COc1ccc(C(=O)NNC(=O)[C@@H]2CCC3=Nc4ccc(Cl)cc4CN32)cc1 shows Activity of no less than 20%?
Result block: Not met

Query block: Could you verify whether the entry Nc1ccc(CCNC(=O)[C@@H]2CCC3=Nc4ccc(Cl)cc4CN32)cc1 shows Activity of no less than 20%?
Result block: Not met

Query block: Could you verify whether the entry O=C(NNC(=O)[C@@H]1CCC2=Nc3ccc(Cl)cc3CN21)c1ccc(F)cc1 shows Activity of no less than 20%?
Result block: Not met

Query block: Could you verify whether the entry O=C(NNC(=O)[C@@H]1CCC2=Nc3ccc(Cl)cc3CN21)c1ccc(O)cc1 shows Activity of no less than 20%?
Result block: Met

Query block: Could you verify whether the entry Nc1ccc(CCNC(=O)[C@@H]2CCC3=Nc4ccc(Br)cc4CN32)cc1 shows Activity of no less than 20%?
Result block: Not met

Query block: Could you verify whether the entry Nc1ccc(C(=O)NNC(=O)[C@@H]2CCC3=Nc4ccc(Br)cc4CN32)cc1 shows Activity of no less than 20%?
Result block: Not met
